Just for reference, PubChem BioAssay (NCI) is where these values come from.

Test system: M19-MEL melanoma
Assay: NCI tumour cell line growth inhibition, 48 h

# Compound, TGI
records = [
    ("C=CCO/N=C(\\OC(=O)c1ccc([N+](=O)[O-])cc1)c1ccccc1", "> 100 µM"),
    ("NCc1cccc(O)c1O", "> 100 µM"),
    ("O=C(O)c1ccccc1N=Cc1ccc(N(CCCl)CCCl)cc1", "> 100 µM"),
    ("CC1=C2C(=CO[C@H](C)[C@H]2C)C(=O)C(C(=O)O)=C1O", "79.1 µM"),
    ("COc1ccc(C(=O)C(CC2C(=O)NC(=O)NC2=O)c2ccc(OC)cc2)cc1 (centres undefined)", "> 100 µM"),
    ("CN=C(/N=c1\\ssc(=NC)n1C)N(C)C", "> 100 µM"),
    ("NNC(=O)C(=O)N/N=C1\\CCC(=O)CC1C(=O)CCC(=O)Nc1ccc(Cl)cc1 (centres undefined)", "> 100 µM"),
    ("CC1(C)CC2(CC(C)(C)N1O)NC(=O)OC2=O", "> 100 µM"),
    ("O=C1C=CC(=O)c2c(O)c(NCCOCCO)c(Cl)c(O)c21", "3.22 µM"),
]

* * *

Each entry below carries its reported TGI.
Tested on: RPMI-8226 leukemia
Experiment: NCI tumour cell line growth inhibition, 48 h

# Compound, TGI
data = [
    ("N.N.N.N.N.O=[N+]([O-])[O-].[Co+3].[O-][Cl+3]([O-])([O-])[O-]", "> 100 µM"),
    ("Cc1c(NC(=S)NC(=O)c2ccc([N+](=O)[O-])cc2)c(=O)n(-c2ccccc2)n1C", "> 100 µM"),
    ("O=c1[nH]n(Cc2ccccc2)c2ccc([N+](=O)[O-])cc12", "> 100 µM"),
    ("O=C(O)c1ccccc1N=Cc1ccc(N(CCCl)CCCl)cc1", "> 100 µM"),
    ("COc1cccc(C=O)c1[O-].[O]=[U](=[O])([OH2+])[OH2+]", "> 100 µM"),
    ("Cc1cc(O)c(C2=NN(c3ccc(S(N)(=O)=O)cc3)C(c3ccc(Cl)cc3)C2)c(C)c1Cl (stereo unspecified)", "17.8 µM"),
    ("O=C1CC(=O)n2cnc3cccc(c32)N1", "> 100 µM"),
    ("CCOC(=O)CCn1ncc(Cl)c(Cl)c1=O", "15.3 µM"),
    ("CCOC(=O)c1cc(C)nc2c1c(=O)n(-c1ccccc1)c(=O)n2CCCCN1CCN(c2ccccc2)CC1", "77.3 µM"),
    ("c1ccc2c(-c3nc(-c4c[nH]c5ccncc45)cs3)c[nH]c2c1", "3.04 µM"),
    ("COc1ccc(C(SC2C(O)C(CO)OC2n2ccc(=O)[nH]c2=O)(c2ccccc2)c2ccc(OC)cc2)cc1 (stereo unspecified)", "> 100 µM"),
    ("CC1=Nc2ccccc2/C1=C\\c1c(C)[nH]c2ccccc12", "88.1 µM"),
    ("O=C([O][Sn]([O]C(=O)c1ccccn1)([c]1ccccc1)[c]1ccccc1)c1ccccn1", "6.13 µM"),
    ("O=c1/c(=C\\c2ccc(F)cc2)sc2n1C(c1ccc(F)cc1)C1=C(N=2)c2ccc3ccccc3c2OCC1 (stereo unspecified)", "> 100 µM"),
    ("Cc1nc(Nc2cccnc2)sc1C(=O)/C=C/c1ccc(Cl)cc1", "9.03 µM"),
    ("Cn1c(=O)oc2nc(-c3ccccc3)cc(C(F)(F)F)c21", "> 100 µM"),
    ("S=c1nc(N/N=C/c2ccco2)c2cn[nH]c2[nH]1", "> 100 µM"),
    ("CC1=Cc2ccc(C)cc2C(=O)C1=O", "7.34 µM"),
    ("O=C(Nn1c(-c2ccccc2)nc2ccccc2c1=O)c1ccccc1O", "> 100 µM"),
    ("O=C1NC(=O)C(C(CC(=O)c2ccc(Cl)cc2)c2ccc(Cl)cc2)C(=O)N1 (stereo unspecified)", "> 100 µM"),
    ("CC(=O)Nc1ccc(OC/C(N)=N/NC(=O)c2ccncc2)cc1", "> 100 µM"),
]
